# CPP ε × Φ (brightness) annotations
Experiment: Photophysical properties of meta-substituted nanohoops (absorption, emission, extinction coefficient, quantum yield)
Format: physicochemical
Conditions: all-para [n]CPP with the same number of rings

{"COMPOUND": "c1cc2ccc1-c1ccc(cc1)-c1ccc(cc1)-c1ccc(cc1)-c1ccc(cc1)-c1ccc(cc1)-c1ccc(cc1)-c1ccc(cc1)-c1ccc(cc1)-c1ccc-2cc1 [[10]CPP, reference compound]", "EXPERIMENTAL RESULT": "8.5 × 10^4"}
{"COMPOUND": "c1cc2ccc1=c1ccc(cc1)=c1ccc(cc1)=c1ccc(cc1)=c1ccc=2cc1 [[5]CPP, reference compound]", "EXPERIMENTAL RESULT": 0}

CPP ε × Φ (brightness) reading for c1cc2ccc1-c1ccc(cc1)-c1ccc(cc1)-c1ccc(cc1)-c1ccc(cc1)-c1ccc(cc1)-c1ccc(cc1)-c1ccc(cc1)-c1ccc(cc1)-c1ccc(cc1)-c1ccc(cc1)-c1ccc-2cc1 [[12]CPP, reference compound] : 1.4 × 10^5

----------
# CPP ε × Φ (brightness) annotations
Experiment: Photophysical properties of meta-substituted nanohoops (absorption, emission, extinction coefficient, quantum yield)
Type: physicochemical
Details: all-para [n]CPP with the same number of rings

Some compounds with recorded CPP ε × Φ (brightness):
{"COMPOUND": "c1cc2ccc1-c1ccc(cc1)-c1ccc(cc1)-c1ccc(cc1)-c1ccc(cc1)-c1ccc(cc1)-c1ccc-2cc1 [[7]CPP, reference compound]", "EXPERIMENTAL RESULT": "4.8 × 10^2"}
{"COMPOUND": "c1cc2ccc1=c1ccc(cc1)=c1ccc(cc1)=c1ccc(cc1)=c1ccc(cc1)=c1ccc=2cc1 [[6]CPP, reference compound]", "EXPERIMENTAL RESULT": 0}

Let us move to another entry and its CPP ε × Φ (brightness).
CPP ε × Φ (brightness) reading for c1cc2ccc1=c1ccc(cc1)=c1ccc(cc1)=c1ccc(cc1)=c1ccc(cc1)=c1ccc(cc1)=c1ccc(cc1)=c1ccc=2cc1 [[8]CPP, reference compound] : 1.0 × 10^4

----------
Experiment: Photophysical properties of meta-substituted nanohoops (absorption, emission, extinction coefficient, quantum yield)
Format: physicochemical
Details: dichloromethane
# Max Abs annotations
Number in nm, nothing else.

Some compounds with recorded Max Abs:
{"COMPOUND": "O[C@]12C=C[C@](O)(CC1)c1ccc(cc1)-c1ccc(cc1)[C@]1(O)C=C[C@@H](C=C1)c1ccc(cc1)-c1cccc(c1)-c1ccc2cc1 [[7]mCPP]", "Max Abs, nm": 328}
{"COMPOUND": "c1cc2cc(c1)-c1ccc(cc1)-c1ccc(cc1)-c1ccc(cc1)-c1ccc(cc1)-c1ccc(cc1)-c1ccc(cc1)-c1ccc(cc1)-c1ccc(cc1)-c1ccc-2cc1 [[10]mCPP]", "Max Abs, nm": 328}
{"COMPOUND": "CO[C@]12C=C[C@](O)(C=C1)c1ccc(cc1)-c1cccc(c1)-c1ccc(cc1)[C@]1(O)C=C[C@@](OC)(C=C1)C1C=CC(=CC1)[C@]1(O)C=C[C@@](O)(CC1)[C@H]1C=CC2=CC1 [[8]mCPP]", "Max Abs, nm": 326}

Let us move to another entry and its Max Abs.
Max Abs reading for O[C@]12C=C[C@](O)(C=C1)c1ccc(cc1)[C@]1(O)C=C[C@@](O)(C=C1)c1ccc(cc1)-c1cccc(c1)[C@@H]1C=CC2=CC1 [[6]mCPP] : 328

----------
# εAmax × ΦAmax (brightness) annotations
Experiment: Photophysical properties of meta-substituted nanohoops (absorption, emission, extinction coefficient, quantum yield)
Assay type: physicochemical
Details: [n]mCPP

{"COMPOUND": "c1cc2cc(c1)-c1ccc(cc1)-c1ccc(cc1)-c1ccc(cc1)-c1ccc(cc1)-c1ccc(cc1)-c1ccc(cc1)-c1ccc(cc1)-c1ccc(cc1)-c1ccc-2cc1 [[10]mCPP]", "εAmax × ΦAmax (brightness)": "5.2 × 10^4"}
{"COMPOUND": "CO[C@]12C=C[C@](O)(C=C1)c1ccc(cc1)-c1cccc(c1)-c1ccc(cc1)[C@]1(O)C=C[C@@](OC)(C=C1)C1C=CC(=CC1)[C@]1(O)C=C[C@@](O)(CC1)[C@H]1C=CC2=CC1 [[8]mCPP]", "εAmax × ΦAmax (brightness)": "3.7 × 10^4"}
{"COMPOUND": "O[C@]12C=C[C@](O)(CC1)c1ccc(cc1)-c1ccc(cc1)[C@]1(O)C=C[C@@H](C=C1)c1ccc(cc1)-c1cccc(c1)-c1ccc2cc1 [[7]mCPP]", "εAmax × ΦAmax (brightness)": "2.3 × 10^4"}

Let us move to another entry and its εAmax × ΦAmax (brightness).
εAmax × ΦAmax (brightness) reading for O[C@]12C=C[C@](O)(C=C1)c1ccc(cc1)[C@]1(O)C=C[C@@](O)(C=C1)c1ccc(cc1)-c1cccc(c1)[C@@H]1C=CC2=CC1 [[6]mCPP] : 1.2 × 10^4

----------
# ΦAmax (fluorescence quantum yield) annotations
Assay: Photophysical properties of meta-substituted nanohoops (absorption, emission, extinction coefficient, quantum yield)
Assay type: physicochemical
Settings: dichloromethane, room temperature
Field format: numeric only.

Some compounds with recorded ΦAmax (fluorescence quantum yield):
{"COMPOUND": "c1cc2cc(c1)-c1ccc(cc1)-c1ccc(cc1)-c1ccc(cc1)-c1ccc(cc1)-c1ccc(cc1)-c1ccc(cc1)-c1ccc(cc1)-c1ccc(cc1)-c1ccc-2cc1 [[10]mCPP]", "ENDPOINT NAME": "ΦAmax (fluorescence quantum yield)", "EXPERIMENTAL RESULT": 0.726}
{"COMPOUND": "O[C@]12C=C[C@](O)(C=C1)c1ccc(cc1)[C@]1(O)C=C[C@@](O)(C=C1)c1ccc(cc1)-c1cccc(c1)[C@@H]1C=CC2=CC1 [[6]mCPP]", "ENDPOINT NAME": "ΦAmax (fluorescence quantum yield)", "EXPERIMENTAL RESULT": 0.224}
{"COMPOUND": "O[C@]12C=C[C@](O)(CC1)c1ccc(cc1)-c1ccc(cc1)[C@]1(O)C=C[C@@H](C=C1)c1ccc(cc1)-c1cccc(c1)-c1ccc2cc1 [[7]mCPP]", "ENDPOINT NAME": "ΦAmax (fluorescence quantum yield)", "EXPERIMENTAL RESULT": 0.450}

ΦAmax (fluorescence quantum yield) reading for CO[C@]12C=C[C@](O)(C=C1)c1ccc(cc1)-c1cccc(c1)-c1ccc(cc1)[C@]1(O)C=C[C@@](OC)(C=C1)C1C=CC(=CC1)[C@]1(O)C=C[C@@](O)(CC1)[C@H]1C=CC2=CC1 [[8]mCPP] : 0.595

FYI, the data here is from patent US11555820B2.
